Data credit: ChEMBL document CHEMBL4130433

target: RAC-alpha serine/threonine-protein kinase (Homo sapiens)
Sequence (P31749 whole entry): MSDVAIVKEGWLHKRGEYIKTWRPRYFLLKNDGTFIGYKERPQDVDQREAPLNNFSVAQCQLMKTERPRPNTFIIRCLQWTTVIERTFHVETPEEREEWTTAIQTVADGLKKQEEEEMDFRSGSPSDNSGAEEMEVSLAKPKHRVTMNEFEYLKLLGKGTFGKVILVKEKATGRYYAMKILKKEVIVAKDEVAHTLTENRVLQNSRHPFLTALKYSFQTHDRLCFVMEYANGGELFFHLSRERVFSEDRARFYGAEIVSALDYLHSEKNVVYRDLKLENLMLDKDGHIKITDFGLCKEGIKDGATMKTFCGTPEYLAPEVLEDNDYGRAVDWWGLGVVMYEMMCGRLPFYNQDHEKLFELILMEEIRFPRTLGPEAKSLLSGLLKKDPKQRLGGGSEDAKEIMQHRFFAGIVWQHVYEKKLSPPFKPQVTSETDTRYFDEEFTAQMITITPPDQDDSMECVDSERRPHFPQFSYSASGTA
As shown below, each of these compounds has a reported pIC50 value.
pIC50 field: float, defined as -log10 of concentration (mol/L).

INSERT INTO measurements (line_notation, target_under_test, quantity_kind, reported) VALUES
  ('COC(=O)c1c(C)nc(NNC(=O)c2cccc3c(=O)c4ccccc4[nH]c23)nc1-c1ccc(C)cc1', 'RAC-alpha serine/threonine-protein kinase (Homo sapiens)', 'pIC50', 6.13);

Form field pIC50, entry COC(=O)c1c(C)nc(NNC(=O)c2cccc3c(=O)c4ccccc4[nH]c23)nc1-c1ccc(OC)cc1 : 6.19

compound CCOC(=O)c1c(C)nc(NNC(=O)c2cccc3c(=O)c4ccccc4[nH]c23)nc1-c1ccc(OC)cc1 , pIC50 observed: 8.76

Value of measured pIC50 for the entry COC(=O)c1c(C)nc(NNC(=O)c2cccc3c(=O)c4ccccc4[nH]c23)nc1-c1cccc(OC)c1 : 6.32

The recorded pIC50 for CCOC(=O)c1c(C)nc(NNC(=O)c2cccc3c(=O)c4ccccc4[nH]c23)nc1CC(C)C is 7.92
